System: H2 receptor
Assay: H2 receptor blocking activity, isolated bullfrog gastric mucosa, histamine-stimulated acid secretion
Format: cell-based, bullfrog (Rana catesbeiana)
Settings: inhibition of acid secretion stimulated by 10^-5 M histamine; antagonist in serosal chamber; read-out: ED50 (the source's name)
Experimental: A second assay for H2 receptor blocking activity employs the isolated bullfrog gastric mucosa--see Warrick and Lin, Communications in Chem. Pathology and Pharmacology, 13, 149 (1976). […] After steady response to 10^-5 M of histamine is established, the antagonist (a compound of this invention) is added to the serosal chamber and the maximal inhibition by each concentration of the H2 -antagonist is recorded. From the dose-response curve, the ED50 of the drug is calculated. […]
Listed compounds paired with reported pIC50
# pIC50: negative log10 of molar concentration; output just the value

A selection of reference data follows.
compound: COc1ccc(Cc2cnc(NCCSCc3csc(CN(C)C)n3)[nH]c2=O)cn1 [Example 4]
endpoint name: pIC50
reported: 4.90
//
compound: CN(C)Cc1nc(CSCCNc2ncc(Cc3cccnc3)c(=O)[nH]2)cs1 [Example 1]
endpoint name: pIC50
reported: 6.94
//
compound: CN(C)Cc1nc(CSCCNc2ncc(Cc3ccc(O)nc3)c(=O)[nH]2)cs1 [Example 6]
endpoint name: pIC50
reported: 6.60
//
compound: CN(C)Cc1nc(CSCCNc2ncc(Cc3ccncc3)c(=O)[nH]2)cs1 [Example 11]
endpoint name: pIC50
reported: 6.71
//
compound: CN(C)Cc1nc(CSCCNc2nc(=O)c(Cc3ccc4c(c3)OCO4)c[nH]2)cs1 [Example 2]
endpoint name: pIC50
reported: 4.95

Challenge: Item Cc1nc(NCCSCc2csc(CN(C)C)n2)[nH]c(=O)c1Cc1cccnc1 [Example 8] has what recorded pIC50?
Response given: 5.70

Challenge: Item Cc1ccc(Cc2cnc(NCCSCc3csc(CN(C)C)n3)[nH]c2=O)cn1 [Example 3] has what recorded pIC50?
Response given: 5.87

Challenge: Item CN(C)Cc1nc(CSCCNc2ncc(Cc3ccccn3)c(=O)[nH]2)cs1 [Example 10] has what recorded pIC50?
Response given: 6.79

Challenge: Item COc1cc(Cc2cnc(NCCSCc3csc(CN(C)C)n3)[nH]c2=O)ccn1 [Example 7] has what recorded pIC50?
Response given: 5.52

Challenge: Item Cc1cc(Cc2cnc(NCCSCc3csc(CN(C)C)n3)[nH]c2=O)cnc1C [Example 5] has what recorded pIC50?
Response given: 5.63

Challenge: Item CN(C)Cc1nc(CSCCNc2ncc(Cc3ccnc(O)c3)c(=O)[nH]2)cs1 [Example 9] has what recorded pIC50?
Response given: 6.22
